- Method: Secondary Assay for lipid storage modulators: Cytotoxcity for probe SAR
- Measurement context: Drosophila S3 cells viability, CellTiter-Glo luminescence, 24 h, with oleic acid added (1 µL, 400 µM); series mostly up to 46.1 µM
Results filed as inconclusive are left out. Activity calls are given as the source filed them. The call rests on the fitted dose curve; in most records, active means well fitted inhibition curve with a large enough effect; inconclusive means small, poorly fitted or top-dose-only effect; inactive means flat fitted curve, though single readings scatter.
// classify into yes for active, no for inactive

Problem: Kindly provide the recorded test outcome for the following compound: COc1ccc(Cl)cc1NC(=S)N1CCN(c2ccccc2F)CC1
Result: no

Problem: Per the records of this test, what outcome belongs to Cc1ccc(-c2cnc(SCC(=O)Nc3nc(C)cs3)n2Cc2ccco2)cc1 ?
Result: no

Problem: For COc1ccc(Cl)cc1NC(=S)N1CCN(c2ccccc2)CC1 , what call appears in the results of this test?
Result: no

Problem: Hello, I am checking results. What call was entered for CCCn1c(-c2ccc(OC)cc2)cnc1SCC(=O)Nc1nc(C)c(C)s1 ?
Result: no

Problem: Recorded test call requested for Cc1ccc(CC(=O)Nc2nc(-c3cccs3)cs2)cc1
Result: no

Problem: Hello, I am checking results. What call was entered for O=C(NCCc1ccc2c(c1)OCO2)c1cc2sccc2[nH]1 ?
Result: no

Problem: What outcome does the record of this test show for O=C(Nc1cccc2c1cnn2-c1ccc(F)cc1)c1ccccn1 ?
Result: yes

Problem: Look up the recorded call for O=C(NC1CCCc2c1cnn2-c1ccc(F)cc1F)C1CCCCN1 (stereo unspecified) in this test.
Result: no

Problem: Kindly provide the recorded test outcome for the following compound: O=C(NC1CCCc2c1cnn2-c1ccc(F)cc1F)c1ccc(F)cc1 (stereo unspecified)
Result: yes

Problem: Test call for this compound, please: O=C(NCCc1ccc2c(c1)OCO2)c1cc2sccc2n1Cc1ccccc1
Result: no

Problem: // return assay outcome for O=C(O)c1cccc(-c2noc(-c3ccccc3F)n2)c1
Result: no

----------
- Method: Secondary Assay for lipid storage modulators: Cytotoxcity for probe SAR
- Measurement context: Drosophila S3 cells viability, CellTiter-Glo luminescence, 24 h, with oleic acid added (1 µL, 400 µM); series mostly up to 46.1 µM
Records with an inconclusive call do not appear. Active and inactive are the calls of the source. Calls come from the whole dose curve; as a rule, active = well fitted inhibition curve with a large enough effect; inconclusive = small, poorly fitted or top-dose-only effect; inactive = flat fitted curve, though single readings scatter.
Give your call using only these classes: active, inactive

Problem: Check the results log: what was the call for C[C@@H](NCCCc1cccc(C(F)(F)F)c1)c1cccc2ccccc12 ?
Result: active

Problem: Record lookup: outcome of this test for COc1ccc(-c2cnc(SCC(=O)Nc3nc(C)cs3)n2Cc2ccco2)cc1 ?
Result: inactive

Problem: Any idea what this test logged for COc1cc(NC(=S)N2CCN(c3ccccn3)CC2)c(OC)cc1Cl ?
Result: inactive

Problem: Assay outcome for CCn1c(C(=O)NCCc2ccc(OC)c(OC)c2)cc2sccc21 : what was it?
Result: inactive

Problem: Which outcome did this test record for the molecule O=C(Cc1cccs1)Nc1nc(-c2ccncc2)cs1 ?
Result: inactive

Problem: Tell me the assay call for CCOC(=O)C1CCN(C(=O)C2(NC(=O)Nc3ccccc3Cl)CCC2)CC1 please.
Result: inactive

Problem: Identify the outcome logged in this assay for the molecule shown: CCOC(=O)C1CCN(C(=O)C2(NC(=O)Nc3ccccc3Cl)CC2)CC1
Result: inactive

----------
- Method: Secondary Assay for lipid storage modulators: Cytotoxcity for probe SAR
- Measurement context: Drosophila S3 cells viability, CellTiter-Glo luminescence, 24 h, with oleic acid added (1 µL, 400 µM); series mostly up to 46.1 µM
Results filed as inconclusive are left out. Active and inactive are the calls of the source. The call rests on the fitted dose curve; in most records, active means well fitted inhibition curve with a large enough effect; inconclusive means small, poorly fitted or top-dose-only effect; inactive means flat fitted curve, though single readings scatter.
Thanks in advance; please answer with one of these: active, inactive

Before answering, review these 9 worked examples.
molecule=O=C(c1cc2sccc2n1Cc1ccccc1)N(CCc1ccc(O)c(O)c1)Cc1ccccc1 discrete_label=inactive
molecule=COc1ccc(-c2csc(NC(=O)CSc3nnc(NC4CC4)s3)n2)cc1OC discrete_label=inactive
molecule=COc1ccc(-c2csc(NC(=O)CSc3nnc(Nc4ccccc4)s3)n2)cc1 discrete_label=inactive
molecule=COc1nc(-c2ccc3c(c2)OCO3)n(-c2ccc(NC(=O)CSc3ccccc3)cc2)n1 discrete_label=inactive
molecule=CCOC(=O)C1CCN(C(=O)C2(NC(=O)NCc3ccccc3)CCCCC2)CC1 discrete_label=inactive
molecule="O=C(NC1CCCc2c1cnn2-c1ccc(F)cc1F)c1ccc(C2(C(F)(F)F)N=N2)cc1 (stereo not given)" discrete_label=active
molecule=CCn1c(-c2ccc(C)cc2)cnc1SCC(=O)Nc1nc(C)cs1 discrete_label=inactive
molecule=COc1ccc(CCNC(=O)c2cc3sc(C)cc3n2C)cc1OC discrete_label=inactive
molecule="CCOC(=O)C1CCN(C(C)C(=O)NC(=O)NC2CCCCC2)CC1 (stereo not given)" discrete_label=inactive

# input for lookup
Problem: Recorded call for CN(C)CC(=O)NC1CCCc2c1cnn2-c1ccc(F)cc1F (stereo not given) ?
Result: inactive

----------
- Method: Secondary Assay for lipid storage modulators: Cytotoxcity for probe SAR
- Measurement context: Drosophila S3 cells viability, CellTiter-Glo luminescence, 24 h, with oleic acid added (1 µL, 400 µM); series mostly up to 46.1 µM
Results filed as inconclusive are left out. Active and inactive are the calls of the source. Calls follow the shape of the dose curve; as a rule, active = well fitted inhibition curve with a large enough effect; inconclusive = small, poorly fitted or top-dose-only effect; inactive = flat fitted curve, though single readings scatter.
A correct response names exactly one class from label 1 = active, label 0 = inactive

Before answering, review these 5 worked examples.
molecule=CCOc1ccc(CCNC(=O)c2ccc(C3(C(F)(F)F)N=N3)cc2)cc1OCC discrete_label="label 0"
molecule=CC(=O)NCc1ccc(-c2csc(NC(=O)Cc3cccs3)n2)cc1 discrete_label="label 0"
molecule="O=C(NC1CCCc2c1cnn2-c1ccc(F)cc1F)c1cnon1 (stereo not drawn)" discrete_label="label 0"
molecule=O=C(NCCc1ccc(O)c(O)c1)c1cc2sccc2n1Cc1ccccc1 discrete_label="label 0"
molecule=CCOc1ccc(CCNC(=O)c2csc(Br)n2)cc1OCC discrete_label="label 0"

Problem: Which result was noted for this molecule in the test: CCOc1ccc(CCNC(=O)c2cc3ccccc3n2C)cc1OCC
Result: label 0

Problem: In this assay, the call recorded for Cc1sc(NC(=O)Cc2cccs2)nc1-c1ccccc1 was what?
Result: label 0

Problem: Assay result, entry CCOc1ccc(NC(=O)NC2(C(=O)N3CCCCC3)CCCCC2)cc1 — outcome?
Result: label 0

Problem: Status in this test for CCOc1ccc(CCNC(=O)C2COc3ccccc3O2)cc1OCC (stereo not drawn) ?
Result: label 0

Problem: Could you check what this test reported for O=C(NC1CCCc2c1cnn2-c1ccccc1F)c1ccc2ncccc2c1 (stereo not drawn) ?
Result: label 1

Problem: Kindly provide the recorded test outcome for the following molecule: Cc1ccc(NC(=O)c2ccc(CN3CCN(C)CC3)cc2)cc1Nc1nc(-c2cccnc2)cs1
Result: label 0

Problem: Hello, I am checking results. What call was entered for COc1ccc(Cl)cc1NC(=O)N1CCN(c2ccccn2)CC1 ?
Result: label 0

Problem: Lab log entry: CCOc1ccc(CCNC(=O)C2(c3ccccc3)CC2)cc1OCC — outcome as called in the assay?
Result: label 0

Problem: Hello, I am checking results. What call was entered for O=C(NC1CCCCC1)NC1(C(=O)N2CCCC2)CCCCC1 ?
Result: label 0

Problem: Answer briefly: the call reported for CCOC(=O)C1CCCN(C(=O)C2(NC(=O)Nc3ccc(F)cc3F)CCCCC2)C1 (stereo not drawn) in this assay.
Result: label 0

Problem: Write down the call the test reported for this molecule. Item: Cc1cc(NC(=O)Nc2ccc(N(C)C)cc2)c2cc(F)cc(F)c2n1
Result: label 1

Problem: Write down the call the test reported for this molecule. Item: O=C(NC1CCCc2c1cnn2-c1ccc(F)cc1F)c1ccc(C(=O)c2ccccc2)cc1 (stereo not drawn)
Result: label 1

Problem: Give the logged outcome of this assay for the following molecule: O=C(NC1CCCc2c1cnn2-c1ccc(F)cc1F)c1cccc(=O)[nH]1 (stereo not drawn)
Result: label 1

Problem: Could you check what this test reported for CCc1sc(NC(=O)Cc2cccs2)nc1-c1ccccc1 ?
Result: label 0

Problem: Status in this test for CCOc1ccc(CCNC(C)=O)cc1OCC ?
Result: label 0

Problem: Status in this test for O=C(NCCc1ccc(O)c(O)c1)c1cc2sccc2[nH]1 ?
Result: label 0

Problem: Assay outcome for CCOc1ccc(CCNC(=O)C2=C(C)OCCO2)cc1OCC : what was it?
Result: label 0

Problem: Query: recorded result category for Cc1cc(SCc2sc(-c3ccc(C(F)(F)F)cc3)nc2C)ccc1OCC(=O)O in this test
Result: label 0
